B1: glmS ribozyme (parent)
chain: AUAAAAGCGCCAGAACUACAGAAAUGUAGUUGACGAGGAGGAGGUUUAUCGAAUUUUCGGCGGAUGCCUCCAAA

variants of: B1; assay: self-cleavage kobs at 2500 uM GlcN6P; higher = faster cleavage; RNA array; conditions: with glucosamine-6-phosphate
Fewer inactive variants are shown than the library holds.

# seq, self-cleavage kobs at 2500 uM GlcN6P
rows = [
    ("AUAAAAGCGCCUGAGUUACAGAAAUGUAGUGGACGAGGAGGAGGUUUAUCGAAUUUUCGGCGGAUGCCUCUAAA", "0.000331 s⁻¹"),
    ("AUAAAAGCGCCAGAACUACAGAAAUGUAGUUGACCAGGAAGAGGUUUAUCGAAUUUUCGGCGGAUGCCUCCAAA", "< 1e-05 s⁻¹"),
    ("AUAAAAGCGCCAGAACUACAGAAAUGUAGUUGACGAGGAAGAGGUUUAUCGAAUUUUCGGCGAAUGCCUCCAAA", "< 1e-05 s⁻¹"),
    ("AUAAAAGCGCCAGAACUACAGAAAUGUAGUUGACGAGUAGGAGGUUUAUCAAAUUUUCGGCGGAUGCCUCCAAA", "< 1e-05 s⁻¹"),
    ("AUAAAAGCGCCAGAACUACAGAAAUGUAGUUGACGAGGCGGAGGUUUAUCGAAUCUUCGGCGGAUGCCUCCAAA", "0.00268 s⁻¹"),
    ("AUAAAAGCGCCAGAACUACAGAAAUGUAGUUGAAGAGGCGGAGGUUUAUCGAAUUUUCCGGGGAUGCCUCCAAA", "< 1e-05 s⁻¹"),
    ("AUAAAAGCGCCAGCAGUACAGAAAUGUAGUUGACGAGGAGGAGGUUUAUCGAAUUUUCGGCGGAUGCCUCCAAA", "8.11e-05 s⁻¹"),
    ("AUAAAAGCGCCAGAACUACAGAAAUGUAGUUGACGAGGAGGAGGUUUAUCUAAUUUACGGCGGAUGCCUCCAAA", "< 1e-05 s⁻¹"),
    ("AUAAAAGCGCCAGAACUACAGAAAUGUAGUUGACGAGGAGGAGGUUUAUCGAAUAUUCAGCGGGUGCCUCCAAA", "2.94e-05 s⁻¹"),
    ("AUAAAAGCGCCAGAACUACAGAAAUGUAGUGGACGACGAGGAGGGUUAUCGAAUUUUCGGCGGAUGCCUUCAAA", "< 1e-05 s⁻¹"),
    ("AUAAAAGAGCCAGAACUACAGAAAUGUAGUUGACGAGGAGGAGGUUUAUCGAAUUUUACGCGGAUGCCUCCAAA", "< 1e-05 s⁻¹"),
    ("AUAAAAGCGCCAGAGUUACAGAAAUGUAGUUGACGAGGAGGAGGUUUAUCGAAUUUUCGGCGGAUGCCUCCAAA", "0.00432 s⁻¹"),
    ("AUAAAAGCUCCAGAACUACAGAAAUGUAGUUCACCAGGAGGAGGUUUAUCGAAUUUUCGGCGGGUGCCUCCAAA", "< 1e-05 s⁻¹"),
    ("AUAAAAGCGCCAGAACUACAGAAAUGUAGUUGACGAGGAGGAGGUGUAUCGAAUUUUCGGCGCAUGCCUCCAAA", "< 1e-05 s⁻¹"),
    ("AUAAAAGCGCCAGAACUACAGAAAUGUAGCUGACGAGGAGGAGGUUUAUCGAAUCGUCGGCGGAUGCCCCCAAA", "< 1e-05 s⁻¹"),
    ("AUAAAAGCGCCAGAACUACAGAAAUGUAGUUGACUAGGAGGGGGUUUAUCGAAUUUUCGGCGGAUGCCUCCAAA", "< 1e-05 s⁻¹"),
    ("AUAAAAGCGCCAAAACUACAGAAAUGUAGUUUACGAGGAGGAGGUUUAUCGAAUUUUCGGCGGAUGCCUCCAAA", "0.000147 s⁻¹"),
    ("AUAAAAGCGCCAGAACUACAGAAAUGUAGUUGACGAGGAAGAGGUUUAUCGAAUUUUCGGCGGACGCCUCCAAA", "0.000394 s⁻¹"),
    ("AUAAAAGCGCCAGAACUACAGAAAUGUAGUUCACGAGGAGGAGGUUGAUCGAAUUUUCCGCGGAUGCCUCCAAA", "< 1e-05 s⁻¹"),
    ("AUAAAAGGGCCAGAACUACAGAAAUGUAGUUGACGAGGAGGAGGUUUAUCGAAUCUUCGGUGGAUGCCUCCAAA", "< 1e-05 s⁻¹"),
    ("AUAAAAGCGCCAGAACUACAGAAAUGUAGGUGACGAGGAGGAGGUUUAUGGAAUUUUGGUGGGAUGCCUCCAAA", "0.00022 s⁻¹"),
    ("AUAAAAGCGCCAGAACUACAGAAAUGUAGUUGACGAGGAGGAGGUUUAUCGAAUUUUCGGUGGCUGGCUCCAAA", "< 1e-05 s⁻¹"),
    ("AUAAAGGCGCCAGAACUACAGAAAUGUAGUGGACGAUGAGGAGGUUUAUCGAAUUUUCGGCGGAUGCCUCCAAA", "< 1e-05 s⁻¹"),
    ("AUAAAAGCGCCAGAACUACAGAAAUGUAGUUGACCAGGAGGAGGUUUCUCGAAUUUUCGGCGGAUGCCUCCAAA", "< 1e-05 s⁻¹"),
    ("AUAAAAUCGCUAGAACUACAGAAAUGUAGUUGACGAGGAGGAGGUUUAUCCAAUUUUCGGCGGAUGCCUCCAAA", "< 1e-05 s⁻¹"),
    ("AUAAAAGCGCCAGAACUACAGAAAUGUACUUGACGAGGAGGAGGUUUAUCGAGUUUUCGGCGGAUGCAUCCAAA", "9.57e-05 s⁻¹"),
    ("AUAAAAGCGCCAGAACUACAGAAAUGUAGUUGACGAGGAGGAAGUUGAUCGAAUUUUCGGGGGAUGCCUCCAAA", "< 1e-05 s⁻¹"),
    ("AUAAAAGCGGCAGUACUACAGAAAUGUAGUUGACUAGGAGGAGGUUUAUCGAAUUUUCGCCGGAUGCCUCCAAA", "< 1e-05 s⁻¹"),
    ("AUAAAAGCGCCAGAACUACAGAAAUGUAGUUGACAAGGAGGGGGGUUAUCGAAUUUUCGGCGGAUGCCUCCAAA", "< 1e-05 s⁻¹"),
    ("AUAAAAGCGCCAGAACUACAGAAAUGUAGUUGCCAAGGAGGAGGUUUAUCGAAUUAUCGGCGGAUGCCUCCAAA", "< 1e-05 s⁻¹"),
    ("AUAAAAGCGUCAGAACUACAGAAAUGUAUUUGACGAGGAGGAGGUUUAUCGAAUUUCCGGCGGAUGCCUCCAAA", "< 1e-05 s⁻¹"),
    ("AUAAAAGCACCAGGACUACAGAAAUGUAGUUGACGAGGAGUAGGUUUAUCGAAUUUUCGGCGGAUGCCUCCAAA", "< 1e-05 s⁻¹"),
    ("AUAAAAGCGCCAGAACUACAGAAAUGUAGUUGAUGAGGAGGAGGUUUAUCGAAUUCUCGGCGGAUCCCUCCAAA", "< 1e-05 s⁻¹"),
    ("AUAAAAGCGCCAGAACUACAGAAAUGUAGUUGACGAGGAGGAGGUUUAUCGAAUAAUCGGCGGAUGCCUCCAAA", "0.00346 s⁻¹"),
    ("AUAAAAGCGCCAGAACUACAGAAAUGUAUUUGACGAGGAGGAGGUUUAUCGAAUUUUCGGCGGACGCCUCCAAA", "6.54e-05 s⁻¹"),
    ("AUAAAAGCGCCAGAACUACAGAAAUGUAGUUGACUAGGAGGAGGUUUACUGAAUUUUGGGUGGAUGCCUCCAAA", "< 1e-05 s⁻¹"),
    ("AUAAAUGCGCCAGAACUACAGAAAUGUAGUUGACGAGGAGGAGUUUUAUCGAAUUUUCGGUGGAUGCCUCCAAA", "< 1e-05 s⁻¹"),
    ("AUAAAAGCGCUAGAACUACAGAAAUGUAGUUGACGAGGAAGAGGUAUAUCGAAUUUUCCGCGGAUGCCUCCAAA", "< 1e-05 s⁻¹"),
    ("AUAAAAGCGCCAGAACUACAGAAAUGUAGUUGCCGAGGAGGAGGUUUAUCGAAUUUUCGGCGGAUGCCUCCAAA", "0.000541 s⁻¹"),
    ("AUAAAAGCCCCAGAACUACAGAAAUGUAGUUGACGCGGAGGAGGUUUAUCGAAUUUUCGGCGGAUGCCUCCAAA", "< 1e-05 s⁻¹"),
]
